- TARGET SYSTEM: THRβ (Homo sapiens)
- Construct: RXRα and THRβ-LBD Eu-anti-GST antibody with GST tag
- Sequence (P10828 217-461 limits assumed, other chains not shown): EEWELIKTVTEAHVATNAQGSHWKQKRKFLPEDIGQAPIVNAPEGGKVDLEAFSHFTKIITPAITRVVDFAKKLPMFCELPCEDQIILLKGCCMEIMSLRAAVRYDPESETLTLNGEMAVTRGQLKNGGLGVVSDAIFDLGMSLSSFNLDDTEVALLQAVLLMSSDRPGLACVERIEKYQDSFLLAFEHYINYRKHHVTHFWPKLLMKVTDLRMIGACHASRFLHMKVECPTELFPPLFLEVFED
- Sequence (P19793 whole entry partner, other chains not shown, the tested form may be a part): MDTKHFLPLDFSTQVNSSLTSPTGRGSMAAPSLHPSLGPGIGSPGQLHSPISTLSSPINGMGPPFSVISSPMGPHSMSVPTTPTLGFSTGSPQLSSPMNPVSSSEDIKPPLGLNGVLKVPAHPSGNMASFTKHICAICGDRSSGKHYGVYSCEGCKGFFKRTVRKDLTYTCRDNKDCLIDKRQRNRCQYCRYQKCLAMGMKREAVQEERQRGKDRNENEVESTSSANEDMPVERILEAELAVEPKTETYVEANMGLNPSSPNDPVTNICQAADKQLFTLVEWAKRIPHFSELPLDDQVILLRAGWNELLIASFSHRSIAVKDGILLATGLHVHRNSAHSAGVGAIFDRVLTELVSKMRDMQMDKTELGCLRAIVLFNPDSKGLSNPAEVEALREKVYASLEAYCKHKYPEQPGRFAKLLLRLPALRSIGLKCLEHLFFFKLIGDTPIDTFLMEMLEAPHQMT
- EXPERIMENT: THRβ binding assay (time-resolved FRET coactivator peptide recruitment)
- Assay type: biochemical
- STUDY CONDITIONS: THRβ-LBD/RXRα, SRC2-2 coactivator peptide recruitment, 4 hours at room temperature
Please respond with met when measured EC50 is strictly beneath 90 nM, and with not met in all other cases.

Please review the following examples before continuing.
>  <COMPOUND>
N#Cc1nn(-c2cc(Cl)c(Oc3ccc(=O)n(C4CC4)c3)c(Cl)c2)c(=O)[nH]c1=O

>  <ASSIGNED CATEGORY>
not met

$$$$
>  <COMPOUND>
CC1CCc2c(Oc3c(Cl)cc(-n4nc(C#N)c(=O)[nH]c4=O)cc3Cl)ccc(=O)n21 (stereo not drawn)

>  <ASSIGNED CATEGORY>
not met

$$$$
>  <COMPOUND>
N#Cc1nn(-c2cc(Cl)c(Oc3ccc(=O)n(-c4cccc(OC(F)(F)F)c4)c3)c(Cl)c2)c(=O)[nH]c1=O

>  <ASSIGNED CATEGORY>
met

$$$$

QUERY: EC50 strictly < 90 nM for this compound? `N#Cc1nn(-c2cc(Cl)c(Oc3ccc(=O)n(-c4ccsc4)c3)c(Cl)c2)c(=O)[nH]c1=O`
RESULT: not met

QUERY: EC50 strictly < 90 nM for this compound? `N#Cc1nn(-c2cc(Cl)c(Oc3ccc(=O)n(-c4nccs4)c3)c(Cl)c2)c(=O)[nH]c1=O`
RESULT: not met

QUERY: EC50 strictly < 90 nM for this compound? `N#Cc1cccc(-n2cc(Oc3c(Cl)cc(-n4nc(C#N)c(=O)[nH]c4=O)cc3Cl)ccc2=O)c1`
RESULT: met

QUERY: EC50 strictly < 90 nM for this compound? `CC(C)Cn1cc(Oc2c(Cl)cc(-n3nc(C#N)c(=O)[nH]c3=O)cc2Cl)ccc1=O`
RESULT: not met

QUERY: EC50 strictly < 90 nM for this compound? `Cc1cc(C)cc(-n2cc(Oc3c(Cl)cc(-n4nc(C#N)c(=O)[nH]c4=O)cc3Cl)ccc2=O)c1`
RESULT: not met

QUERY: EC50 strictly < 90 nM for this compound? `COCCn1cc(Oc2c(Cl)cc(-n3nc(CF)c(=O)[nH]c3=O)cc2Cl)ccc1=O`
RESULT: met

QUERY: EC50 strictly < 90 nM for this compound? `N#Cc1nn(-c2cc(Cl)c(Oc3ccc(=O)n(C4CCC4)c3)c(Cl)c2)c(=O)[nH]c1=O`
RESULT: met

QUERY: EC50 strictly < 90 nM for this compound? `N#Cc1nn(-c2cc(Cl)c(Oc3ccc(=O)n(-c4cccc(F)c4)c3)c(Cl)c2)c(=O)[nH]c1=O`
RESULT: met

QUERY: EC50 strictly < 90 nM for this compound? `CC(C)n1cc(Oc2c(Cl)cc(-n3nc(C#N)c(=O)[nH]c3=O)cc2Cl)cc(C2CC2)c1=O`
RESULT: not met

QUERY: EC50 strictly < 90 nM for this compound? `N#Cc1nn(-c2cc(Cl)c(Oc3ccc(=O)n(-c4cc(F)cc(F)c4)c3)c(Cl)c2)c(=O)[nH]c1=O`
RESULT: not met

QUERY: EC50 strictly < 90 nM for this compound? `O=c1[nH]c(=O)n(-c2cc(Cl)c(Oc3ccc(=O)n(-c4cccc(OC(F)(F)F)c4)c3)c(Cl)c2)nc1CF`
RESULT: met

QUERY: EC50 strictly < 90 nM for this compound? `N#Cc1nn(-c2cc(Cl)c(Oc3cc(F)c(=O)n(C4CCCC4)c3)c(Cl)c2)c(=O)[nH]c1=O`
RESULT: not met

QUERY: EC50 strictly < 90 nM for this compound? `N#Cc1nn(-c2cc(Cl)c(Oc3ccc(=O)n(C4=CCCCC4)c3)c(Cl)c2)c(=O)[nH]c1=O`
RESULT: met

====

- TARGET SYSTEM: THRα (Homo sapiens, UniProt P10827)
- Construct: GST
- Sequence (P10827 1-410 isoform P10827-2, other chains not shown): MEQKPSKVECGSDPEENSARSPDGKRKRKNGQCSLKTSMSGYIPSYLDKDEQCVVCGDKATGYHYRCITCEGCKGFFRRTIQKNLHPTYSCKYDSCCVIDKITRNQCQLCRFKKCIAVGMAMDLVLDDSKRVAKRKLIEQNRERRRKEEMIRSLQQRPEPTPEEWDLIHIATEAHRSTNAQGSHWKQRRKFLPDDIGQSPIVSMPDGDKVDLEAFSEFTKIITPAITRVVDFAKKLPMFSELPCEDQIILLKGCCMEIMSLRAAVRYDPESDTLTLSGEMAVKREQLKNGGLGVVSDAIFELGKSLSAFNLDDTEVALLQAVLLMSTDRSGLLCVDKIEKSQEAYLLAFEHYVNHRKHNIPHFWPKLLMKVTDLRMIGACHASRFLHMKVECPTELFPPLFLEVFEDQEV
- Sequence (P19793 whole entry partner, other chains not shown): as the sequence (P19793 whole entry partner, other chains not shown, the tested form may be a part) above
- EXPERIMENT: THRα binding assay (as the THRβ assay, THRβ replaced with THRα)
- Assay type: biochemical
- STUDY CONDITIONS: THRα in place of THRβ
I'd appreciate it if you could supply EC50 values for the items below.

Some solved entries appear below for comparison.
>  <COMPOUND>
O=c1[nH]c(=O)n(-c2cc(Cl)c(Oc3ccc(=O)n(-c4ccccc4)c3)c(Cl)c2)nc1CF [Example 35]

>  <EC50>
220 nM

$$$$
>  <COMPOUND>
O=c1[nH]c(=O)n(-c2cc(Cl)c(Oc3ccc(=O)n(-c4ccc(F)cc4)c3)c(Cl)c2)nc1CF [Example 37]

>  <EC50>
9260 nM

$$$$
>  <COMPOUND>
O=c1[nH]c(=O)n(-c2cc(Cl)c(Oc3ccc(=O)n(-c4cccc(F)c4)c3)c(Cl)c2)nc1CF [Example 38]

>  <EC50>
85 nM

$$$$

Attention now turns to another entry.
// EC50 lookup, compound = O=c1[nH]c(=O)n(-c2cc(Cl)c(Oc3ccc(=O)n(-c4cccc(OC(F)(F)F)c4)c3)c(Cl)c2)nc1CF [Example 40] , result: 95 nM

====

- TARGET SYSTEM: THRβ (Homo sapiens)
- Construct: RXRα and THRβ-LBD Eu-anti-GST antibody with GST tag
- EXPERIMENT: THRβ binding assay (time-resolved FRET coactivator peptide recruitment)
- Type: biochemical
- STUDY CONDITIONS: THRβ-LBD/RXRα, SRC2-2 coactivator peptide recruitment, 4 hours at room temperature
Classification scheme (EC50): bucket A (below 40 nM), bucket B (40 nM to below 400 nM), bucket C (400 nM or more)

Please review the following examples before continuing.
>  <COMPOUND>
N#Cc1nn(-c2cc(Cl)c(Oc3ccc(=O)n(-c4ccccc4)c3)c(Cl)c2)c(=O)[nH]c1=O [Example 20]

>  <TARGET SYSTEM>
THRβ (Homo sapiens)

>  <ASSIGNED CATEGORY>
bucket B

$$$$
>  <COMPOUND>
N#Cc1nn(-c2cc(Cl)c(Oc3ccc(=O)n(-c4cccc(C5CC5)c4)c3)c(Cl)c2)c(=O)[nH]c1=O [Example 31]

>  <TARGET SYSTEM>
THRβ (Homo sapiens)

>  <ASSIGNED CATEGORY>
bucket B

$$$$
>  <COMPOUND>
O=c1[nH]c(=O)n(-c2cc(Cl)c(Oc3ccc(=O)n(-c4ccc(F)cc4)c3)c(Cl)c2)nc1CF [Example 37]

>  <TARGET SYSTEM>
THRβ (Homo sapiens)

>  <ASSIGNED CATEGORY>
bucket B

$$$$

QUERY: For N#Cc1nn(-c2cc(Cl)c(Oc3ccc(=O)[nH]c3)c(Cl)c2)c(=O)[nH]c1=O [Example 2] , which EC50 bin applies?
RESULT: bucket C

QUERY: For COCCn1cc(Oc2c(Cl)cc(-n3nc(C#N)c(=O)[nH]c3=O)cc2Cl)ccc1=O [Example 8] , which EC50 bin applies?
RESULT: bucket C

QUERY: For N#Cc1nn(-c2cc(Cl)c(Oc3ccc(=O)n(C4=CCCC4)c3)c(Cl)c2)c(=O)[nH]c1=O [Example 11] , which EC50 bin applies?
RESULT: bucket A

QUERY: For Cc1cc(C)cc(-n2cc(Oc3c(Cl)cc(-n4nc(CF)c(=O)[nH]c4=O)cc3Cl)ccc2=O)c1 [Example 42] , which EC50 bin applies?
RESULT: bucket A

QUERY: For N#Cc1nn(-c2cc(Cl)c(Oc3ccc(=O)n(C4CCCC4=O)c3)c(Cl)c2)c(=O)[nH]c1=O (centres unmarked) [Example 4] , which EC50 bin applies?
RESULT: bucket C

QUERY: For O=c1[nH]c(=O)n(-c2cc(Cl)c(Oc3ccc(=O)n(-c4ccccc4)c3)c(Cl)c2)nc1CF [Example 35] , which EC50 bin applies?
RESULT: bucket A

QUERY: For O=c1[nH]c(=O)n(-c2cc(Cl)c(Oc3ccc(=O)n(-c4cccc(C(F)(F)F)c4)c3)c(Cl)c2)nc1CF [Example 39] , which EC50 bin applies?
RESULT: bucket A

QUERY: For Cc1cc(Oc2c(Cl)cc(-n3nc(C#N)c(=O)[nH]c3=O)cc2Cl)cn(C2CCCC2)c1=O [Example 17] , which EC50 bin applies?
RESULT: bucket C

QUERY: For N#Cc1nn(-c2cc(Cl)c(Oc3cc(Cl)c(=O)n(C4CCCC4)c3)c(Cl)c2)c(=O)[nH]c1=O [Example 15] , which EC50 bin applies?
RESULT: bucket C

QUERY: For Cc1ccc(-n2cc(Oc3c(Cl)cc(-n4nc(CF)c(=O)[nH]c4=O)cc3Cl)ccc2=O)cc1 [Example 41] , which EC50 bin applies?
RESULT: bucket B
